# tgt: GTPase HRas (Homo sapiens) (UniProt P01112)
# Sequence (P01112 whole entry, looked up): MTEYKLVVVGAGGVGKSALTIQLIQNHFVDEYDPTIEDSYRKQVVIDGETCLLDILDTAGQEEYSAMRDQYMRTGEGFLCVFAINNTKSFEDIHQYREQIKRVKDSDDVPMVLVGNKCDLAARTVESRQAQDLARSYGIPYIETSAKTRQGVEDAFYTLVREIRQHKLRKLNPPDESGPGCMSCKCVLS
# assay_info: inhibition of Bodipy-GTP binding to H-Ras wt – biochemical, multiplex bead flow cytometry, round 1, SAR follow-up (AID 588388)
# condition: GST-H-Ras beads, EDTA
assay_readout: EC50

compound: O=C(NC(=S)Nc1sc2c(c1C(=O)O)CCOC2)c1ccccc1
EC50: 33 nM
--
compound: CC1(C)Cc2c(sc(NC(=S)NC(=O)c3ccccc3F)c2C(=O)O)CO1
EC50: 50 nM
--
compound: CC1(C)Cc2c(sc(NC(=S)NC(=O)c3ccccc3)c2C(=O)O)CO1
EC50: 78 nM
--
compound: CC1(C)CCc2sc(NC(=S)NC(=O)c3ccccc3)c(C(=O)O)c2C1
EC50: 67 nM
--
compound: CC1Cc2c(sc(NC(=S)NC(=O)c3ccccc3)c2C(=O)O)CO1 (stereo unspecified)
EC50: 54 nM

Q) Input "COc1ccc(C(=O)NC(=S)Nc2sc3c(c2C(=O)O)CC(C)(C)OC3)cc1" , output reported EC50.
A) 108 nM

Q) Indicate its recorded EC50; the compound in question is "CC1(C)Cc2c(sc(NC(=O)NC(=O)c3ccccc3)c2C(=O)O)CO1"
A) 149 nM

Q) Respond only with EC50 recorded for "COc1cccc(C(=O)NC(=S)Nc2sc3c(c2C(=O)O)CC(C)(C)OC3)c1"
A) 30 nM

Q) Given "CC1(C)Cc2c(sc(NC(=S)NC(=O)c3ccc(Br)cc3)c2C(=O)O)CO1" , respond with its EC50.
A) 257 nM

Q) Look up and state reported EC50 for "CC1(C)Cc2c(sc(NC(=S)NC(=O)c3cccc(F)c3)c2C(=O)O)CO1"
A) 290 nM

Q) Find the measured EC50 of "CC1(C)Cc2c(sc(NC(=S)NC(=O)c3ccccc3Br)c2C(=O)O)CO1" and report it.
A) 46 nM
